Experiment: qHTS for identification of novel therapeutic agents for treatment of microphthalmiaassociated transcription factor (MiT) renal cell carcinoma (RCC) (AID 1963991);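 further: curves scaled with 100% = DMSO viability and 0% = empty wells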
Conditions: TFE3-RCC viability, CellTiter-Glo, 48 h; measured here: UOK145 Z-AUC; stronger effect = lower value
Results filed as inconclusive are left out.
endpoint.label: z-score
Answer with a bare number; do not write a unit.

Reference set, count: 4
INSERT INTO results (compound_structure_string, numeric_result) VALUES
  ('C[C@@]12O[C@@H](C[C@]1(O)CO)n1c3ccccc3c3c4c(c5c6ccccc6n2c5c31)CNC4=O', -1.26),
  ('C[C@@H](Oc1cc(-n2cnc3ccc(CN4CCN(C)CC4)cc32)sc1C(N)=O)c1ccccc1C(F)(F)F', -1.64),
  ('C=CCn1c(=O)c2cnc(Nc3ccc(N4CCN(C)CC4)cc3)nc2n1-c1cccc(C(C)(C)O)n1', -2.1),
  ('O=C(O)CCCc1c[nH]c2ccccc12', 0.654);

Record request: z-score value, item Nc1ncnc2c1c(-c1cnc3[nH]ccc3c1)nn2C1CCCC1
-1.32

###

Target: Furin (Homo sapiens)
Experiment: Furin counterscreen qHTS for Zika virus inhibitors (AID 1347149); further: nearly all actives have a fitted effect of over 70% in size
Settings: furin enzymatic counterscreen, fluorogenic substrate; series mostly up to 114 µM
Records with an inconclusive call do not appear. Activity calls are given as the source filed them. Calls come from the whole dose curve; as a rule, active = well fitted inhibition curve with a large enough effect; inconclusive = small, poorly fitted or top-dose-only effect; inactive = no such curve, though single readings can be large or run the other way.
Write down the outcome that applies. Available outcomes: active, inactive

Worked cases, answers included:
INSERT INTO results (compound, label) VALUES
  ('CCS(=O)(=O)c1cccc(-c2cc(C(=O)NC3CCN(C)CC3)c(C)c3[nH]c4ncc(C)cc4c23)c1', 'active'),
  ('O=C(Nc1cc(C(F)(F)F)cc(C(F)(F)F)c1)c1cc(Cl)ccc1O', 'active'),
  ('CCn1cc(-c2ccnc3[nH]c(-c4cccc(CN(C)C)c4)cc23)c(-c2ccc(NC(=O)N(C)C)cc2)n1', 'active');

Could you kindly confirm the outcome this assay logged for O=c1c2ccccc2nc2n1CCc1c-2[nH]c2ccccc12 ?
active

Could you kindly confirm the outcome this assay logged for O=C(O)C1(Cc2cccc(Nc3nccs3)n2)CCC(Oc2cccc(Cl)c2F)CC1 (configuration not stated) ?
inactive

Could you kindly confirm the outcome this assay logged for C[C@@]12O[C@@H](C[C@]1(O)CO)n1c3ccccc3c3c4c(c5c6ccccc6n2c5c31)CNC4=O ?
active

Could you kindly confirm the outcome this assay logged for CN1CCC(CNc2ccc3ncc(-c4cccc(OC(F)(F)F)c4)n3n2)CC1 ?
active

###

Test: qHTS Screen of the MIPE 4.0 Collection Against Ewings Sarcoma (TC71) (AID 1259253); further: potency means the concentration at half of the fitted maximal effect; nearly all actives have a fitted effect of over 40% in size
Conditions: TC71 Ewing sarcoma viability, CellTiter-Glo, 48 h; series mostly up to 45.8 µM
Inconclusive results are not listed. Activity calls are given as the source filed them. The call rests on the fitted dose curve; in most records, active means well fitted inhibition curve with a large enough effect; inconclusive means small, poorly fitted or top-dose-only effect; inactive means no such curve, though single readings can be large or run the other way.
Write down the outcome that applies. Available outcomes: active, inactive

Could you kindly confirm the outcome this assay logged for COc1ccc2c(c1)CC[C@@H](CN(C)CC(=O)O)[C@H]2c1ccccc1 ?
active

Could you kindly confirm the outcome this assay logged for Cc1cc(N2CCOCC2)cc2[nH]c(-c3c(NC[C@@H](O)c4cccc(Cl)c4)cc[nH]c3=O)nc12 ?
active

###

System: AS120
Assay: qHTS profiling for inhibitors of Plasmodium falciparum proliferation (AID 504749); further: nearly all actives have a fitted effect of over 60% in size
Settings: P. falciparum in erythrocytes, SYBR Green DNA, 72 h; series mostly up to 28.7 µM
Description: NIH National Institute of Allergy and Infectious Diseases [NIAID] NIH Chemical Genomics Center [NCGC] […] Because mature erythrocytes lack DNA, only Plasmodium-derived DNA is detected. NCGC Assay Protocol Summary: The SYBR Green viability assay was adapted from a method described previously (Plouffe et al., 2008). […] The following morning, fluorescence intensity at 485(14) nm excitation and 535(25) nm emission wavelengths was measured on an EnVision (Perkin Elmer) plate reader. […]
Results filed as inconclusive are left out. Calls of active or inactive are those of the source. Calls come from the whole dose curve; as a rule, active = well fitted inhibition curve with a large enough effect; inconclusive = small, poorly fitted or top-dose-only effect; inactive = flat fitted curve, though single readings scatter.
Write down the outcome that applies. Available outcomes: active, inactive

Worked cases, answers included:
INSERT INTO results (compound_structure_string, assay_target, label) VALUES
  ('COc1c(N2C[C@@H]3CCCN[C@H]3C2)c(F)cc2c(=O)c(C(=O)O)cn(C3CC3)c12', 'AS120', 'inactive'),
  ('CCC1=C[C@@H]2CN(C1)Cc1c([nH]c3ccccc13)[C@@](C(=O)OC)(c1cc3c(cc1OC)N(C)[C@@H]1[C@@](O)(C(=O)OC)[C@H](OC(C)=O)[C@]4(CC)C=CCN5CC[C@]31[C@@H]54)C2', 'AS120', 'active'),
  ('C[C@H]1C[C@@H]2[C@@H]([C@@H](O)C[C@@]3(C)[C@H]2CC[C@]3(O)C(=O)CO)[C@@]2(C)C=CC(=O)C=C12', 'AS120', 'inactive');

We next turn to a different compound, shown below.
Could you kindly confirm the outcome this assay logged for CC[C@H]1CN2CCc3cc(OC)c(OC)cc3[C@H]2C[C@@H]1C[C@@H]1NCCc2cc(OC)c(OC)cc21 ?
active

###

Listing: Potency of selected molecules
Test: qHTS drug screen for cell cycle checkpoint inhibitors in PARPi-resistant BRCA-mutant ovarian cancer cell lines. (AID 1963452); further: potency means the concentration at half of the fitted maximal effect
Details: PEO1/OlaR viability, CellTiter-Glo luminescence, 96 h
Calls of active or inactive are those of the source. The call rests on the fitted dose curve.

INSERT INTO assay_data (compound_structure_string, result) VALUES
  ('NC(=O)Nc1cc(-c2cccc(F)c2)sc1C(=O)N[C@H]1CCCNC1', '110 nM (active)'),
  ('O=C(NC1CCNCC1)c1[nH]ncc1NC(=O)c1c(Cl)cccc1Cl', '977 nM (active)'),
  ('O=C(Nc1cc(C(F)(F)F)cc(C(F)(F)F)c1)c1cc(Cl)ccc1O', '977 nM (active)'),
  ('c1ccc2c(CCNc3ccc(Nc4ccncc4)cc3)c[nH]c2c1', '1230 nM (active)');

Record request: Potency value, item C=CCn1c(=O)c2cnc(Nc3ccc(N4CCN(C)CC4)cc3)nc2n1-c1cccc(C(C)(C)O)n1
138 nM (active)

###

Test: Quantitative High-Throughput drug screen in 47 multiple myeloma cell lines against the NCATS MIPE library collection: UTMC2_PLB cell viability assay (AID 1919868); further: nearly all actives have a fitted effect of over 55% in size
Conditions: CellTiter-Glo ATP luminescence, 48 h
Results filed as inconclusive are left out. The source made the active and inactive calls. Calls come from the whole dose curve; as a rule, active = well fitted cell-killing curve with a large enough effect; inconclusive = small, poorly fitted or top-dose-only effect, or effect the other way; inactive = no such curve, though single readings can be large or run the other way.
Write down the outcome that applies. Available outcomes: true (1) for active, false (0) for inactive

INSERT INTO results (compound, label) VALUES
  ('CCOC(=O)C1=C(C)NC2=C(C(=O)CC(C)(C)C2)C1c1ccc(-c2ccccc2)cc1 (centres undefined)', 'true (1)'),
  ('CC1(C)OC2=C(C(=O)c3ccccc3C2=O)[C@H](NCc2ccccc2)[C@H]1O', 'true (1)'),
  ('Cc1ccc(C(=O)Nc2cccc(C(F)(F)F)c2)cc1-c1ccc2nc(NCCN3CCOCC3)ncc2c1', 'true (1)'),
  ('CCn1nnc2c(N3CCOCC3)nc(-c3ccc(NC(=O)Nc4ccc(C(=O)N5CCN(C)CC5)cc4)cc3)nc21', 'true (1)'),
  ('Nc1ccc(C(=O)c2cc3c(ccc4ccccc43)[nH]2)cc1', 'true (1)');

Could you kindly confirm the outcome this assay logged for O=C(c1ccc(Nc2nccc(-c3cc4ccccc4s3)n2)cc1)N1CCC(N2CCCC2)CC1 ?
true (1)

Could you kindly confirm the outcome this assay logged for COc1cc(OC2CCN(C)CC2)ccc1Nc1ncc2c(n1)n(C1CCCC1)c(=O)n2C ?
true (1)

Could you kindly confirm the outcome this assay logged for COc1ccc(C=Cc2cc(OC)c(OC)c(OC)c2)cc1O ?
false (0)

###

Test: qHTS of pediatric cancer cell lines to identify multiple opportunities for drug repurposing: Confirmatory screen for NB-EBc1 cells (AID 1347115);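 further: cells exposed to compound for 48 h before the viability read; nearly all actives have a fitted effect of over 45% in size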
Conditions: NB-EBc1 neuroblastoma cells, viability (cytotoxicity); series mostly up to 45.9 µM
Results filed as inconclusive are left out. The source made the active and inactive calls. Calls follow the shape of the dose curve; as a rule, active = well fitted cell-killing curve with a large enough effect; inconclusive = small, poorly fitted or top-dose-only effect, or effect the other way; inactive = no such curve, though single readings can be large or run the other way.
Write down the outcome that applies. Available outcomes: active, inactive

Worked cases, answers included:
INSERT INTO assay_data (compound_structure_string, label) VALUES
  ('Cc1c(Cn2c(C)nc3c(C(=O)O)cc(N4CCOCC4)cc32)cccc1C(F)(F)F', 'inactive'),
  ('COC(=O)[C@]12CCC(C)(C)C[C@@H]1[C@@H]1C(=O)C=C3[C@@]4(C)C=C(C#N)C(=O)C(C)(C)[C@@H]4CC[C@@]3(C)[C@]1(C)CC2', 'active'),
  ('C[C@@]12O[C@@H](C[C@]1(O)CO)n1c3ccccc3c3c4c(c5c6ccccc6n2c5c31)CNC4=O', 'active');

Could you kindly confirm the outcome this assay logged for C=CC(=O)Nc1cccc(Oc2nc(Nc3ccc(N4CCN(C)CC4)cc3OC)ncc2Cl)c1 ?
inactive

###

Assay: qHTS of pediatric cancer cell lines to identify multiple opportunities for drug repurposing: Primary screen for BT-37 cells (AID 1347094)
Settings: BT-37 viability, CellTiter-Glo luminescence, 48 h; series mostly up to 57.3 µM
Records with an inconclusive call do not appear. Calls of active or inactive are those of the source. Calls come from the whole dose curve; as a rule, active = well fitted cell-killing curve with a large enough effect; inconclusive = small, poorly fitted or top-dose-only effect; inactive = flat fitted curve, though single readings scatter.
Write down the outcome that applies. Available outcomes: active, inactive

Worked cases, answers included:
INSERT INTO results (compound, label) VALUES
  ('NCC(=O)Nc1ccc(-n2nc(C(F)(F)F)cc2-c2ccc3c(ccc4ccccc43)c2)cc1', 'active'),
  ('Cn1c(CNc2ccc(C(=N)N)cc2)nc2cc(C(=O)N(CCC(=O)O)c3ccccn3)ccc21', 'inactive'),
  ('Cc1c(CN2CCN(S(C)(=O)=O)CC2)sc2c(N3CCOCC3)nc(-c3cnc(N)nc3)nc12', 'active'),
  ('COc1cc2c(Oc3ccc(NC(=O)C4(C(=O)Nc5ccc(F)cc5)CC4)cc3F)ccnc2cc1OCCCN1CCOCC1', 'active'),
  ('Fc1cc(-c2cccc3ncc(-c4cnn(C5CCNCC5)c4)nc23)cc(F)c1CN1CCOCC1', 'active'),
  ('c1nc2nc(Nc3ccc(N4CCOCC4)cc3)nc(NC3CCCCC3)c2[nH]1', 'active'),
  ('C[C@@H]1COC(Nc2ccc3ncnc(Nc4ccc(OCc5nccs5)c(Cl)c4)c3c2)=N1', 'active'),
  ('CNC(=O)c1ccc(-c2cnc3ncc(Cc4ccc5ncccc5c4)n3n2)cc1F', 'inactive');

We next turn to a different compound, shown below.
Could you kindly confirm the outcome this assay logged for CC[C@@H]1C(=O)N(C)c2cnc(Nc3ccc(C(=O)NC4CCC(N5CCN(CC6CC6)CC5)CC4)cc3OC)nc2N1C(C)C (some centres undefined) ?
active
